target: SMARCA2 (Homo sapiens, UniProt P51531); test: MSD SMARCA2 degradation in A549 cell line; type: cell-based; set-up: endogenous in cells; conditions: A549 cells, 24 h, read-out: SMARCA2 MSD A549 degradation 24 h: Average external-Abs DC50
Sequence (P51531 whole entry): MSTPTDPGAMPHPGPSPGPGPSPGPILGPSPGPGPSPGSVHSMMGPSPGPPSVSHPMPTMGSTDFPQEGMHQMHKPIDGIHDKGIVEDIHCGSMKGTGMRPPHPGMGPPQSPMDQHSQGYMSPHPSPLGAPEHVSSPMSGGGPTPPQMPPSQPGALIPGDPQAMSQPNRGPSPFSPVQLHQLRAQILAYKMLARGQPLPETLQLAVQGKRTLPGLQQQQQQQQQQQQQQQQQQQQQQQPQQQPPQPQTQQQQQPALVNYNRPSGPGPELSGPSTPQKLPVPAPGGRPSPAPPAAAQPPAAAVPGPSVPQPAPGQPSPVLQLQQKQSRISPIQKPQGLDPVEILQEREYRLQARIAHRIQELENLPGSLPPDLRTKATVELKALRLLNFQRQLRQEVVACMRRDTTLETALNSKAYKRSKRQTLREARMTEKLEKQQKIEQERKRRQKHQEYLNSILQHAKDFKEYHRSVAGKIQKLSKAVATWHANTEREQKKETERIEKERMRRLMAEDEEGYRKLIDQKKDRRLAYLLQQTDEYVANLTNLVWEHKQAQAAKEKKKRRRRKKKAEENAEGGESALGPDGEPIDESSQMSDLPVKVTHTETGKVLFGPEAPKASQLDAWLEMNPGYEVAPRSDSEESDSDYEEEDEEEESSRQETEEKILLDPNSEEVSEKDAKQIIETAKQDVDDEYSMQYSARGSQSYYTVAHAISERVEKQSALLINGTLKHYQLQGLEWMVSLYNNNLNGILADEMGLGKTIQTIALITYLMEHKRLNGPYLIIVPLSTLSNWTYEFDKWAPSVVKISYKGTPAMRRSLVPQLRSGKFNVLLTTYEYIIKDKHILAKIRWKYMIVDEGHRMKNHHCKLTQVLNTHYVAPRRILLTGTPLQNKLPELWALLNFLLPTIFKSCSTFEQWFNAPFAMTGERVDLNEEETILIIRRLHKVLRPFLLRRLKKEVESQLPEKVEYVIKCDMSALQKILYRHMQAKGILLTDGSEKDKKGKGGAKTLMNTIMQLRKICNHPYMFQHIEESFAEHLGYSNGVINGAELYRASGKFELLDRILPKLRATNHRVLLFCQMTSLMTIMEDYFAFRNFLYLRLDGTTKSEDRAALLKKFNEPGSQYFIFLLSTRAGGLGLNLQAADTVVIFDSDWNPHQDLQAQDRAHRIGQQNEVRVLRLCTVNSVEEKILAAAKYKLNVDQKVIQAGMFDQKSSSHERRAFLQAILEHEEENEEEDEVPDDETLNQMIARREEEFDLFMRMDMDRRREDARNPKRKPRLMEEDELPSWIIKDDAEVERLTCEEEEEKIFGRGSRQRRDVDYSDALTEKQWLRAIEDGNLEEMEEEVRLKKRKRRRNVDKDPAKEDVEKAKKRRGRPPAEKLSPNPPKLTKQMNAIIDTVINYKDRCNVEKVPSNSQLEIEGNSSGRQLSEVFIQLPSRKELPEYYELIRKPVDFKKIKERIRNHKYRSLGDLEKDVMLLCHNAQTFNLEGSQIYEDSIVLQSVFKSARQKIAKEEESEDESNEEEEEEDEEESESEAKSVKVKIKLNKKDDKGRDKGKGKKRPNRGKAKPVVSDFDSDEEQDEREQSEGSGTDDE
Result type: DC50

Asked: Please give measured DC50 of the following entry: Cc1ncsc1-c1ccc(CNC(=O)[C@@H]2C[C@@H](O)CN2C(=O)[C@@H](NC(=O)[C@H]2CC3(C2)C[C@H](N2CCC(Oc4ccc(N5C6CCC5CN(c5cc(-c7ccccc7O)nnc5N)C6)cn4)CC2)C3)C(C)(C)C)cc1 (stereo partly shown) [I-40]
Given back: > 1 µM

Asked: // fetch DC50 given entry Cc1ncsc1-c1ccc(CNC(=O)[C@@H]2C[C@@H](O)CN2C(=O)[C@@H](NC(=O)CN2CC3(C2)CN(C2CCC(c4cnc(N5C6CCC5CN(c5cc(-c7ccccc7O)nnc5N)C6)nc4)CC2)C3)C(C)(C)C)cc1 (stereo partly shown)
Given back: 0.501 to 1 µM

Asked: Answer with the recorded DC50 of Cc1ncsc1-c1ccc([C@H](C)NC(=O)[C@@H]2C[C@@H](O)CN2C(=O)[C@@H](NC(=O)[C@H]2CCC3(CC2)C[C@H](N2CCC(c4cnc(N5C6CCC5CN(c5cc(-c7ccccc7O)nnc5N)C6)nc4)CC2)C3)C(C)(C)C)cc1 (stereo partly shown) [I-16] only.
Given back: 0.1 to 0.5 µM

Asked: For the compound Cc1ncsc1-c1ccc(CNC(=O)[C@@H]2C[C@@H](O)CN2C(=O)[C@@H](NC(=O)N2CC3(CC(N4CCC(c5cnc(N6C7CCC6CN(c6cc(-c8ccccc8O)nnc6N)C7)nc5)CC4)C3)C2)C(C)(C)C)cc1 , give its reported DC50.
Given back: < 0.1 µM

* * *

target: SMARCA2 (Homo sapiens); test: MSD SMARCA2 degradation in A549 cell line; assay type: cell-based; design: endogenous in cells; details: A549 cells, 24 h, read-out: SMARCA2 MSD A549 degradation 24 h: Average external-Abs DC50
Give measured DC50 for each item. Keep answers brief.

Asked: Query DC50 for Cc1ncsc1-c1ccc([C@H](C)NC(=O)[C@@H]2C[C@@H](O)CN2C(=O)[C@@H](NC(=O)[C@H]2CCC3(CC2)C[C@H](N2CCC(c4cnc(N5C6CCC5CN(c5cc(-c7ccccc7O)nnc5N)C6)nc4)CC2)C3)C(C)(C)C)cc1 (stereo in doubt) [I-15]
Given back: 100 to 500 nM

Asked: Return reported DC50. Input molecule: Cc1ncsc1-c1ccc(CNC(=O)[C@@H]2C[C@@H](O)CN2C(=O)[C@@H](c2cc(OCCCCN3CCC(c4cnc(N5C6CCC5CN(c5cc(-c7ccccc7O)nnc5N)C6)nc4)CC3)no2)C(C)C)cc1 [I-55]
Given back: < 100 nM

Asked: Name the recorded DC50 of the molecule listed here: Cc1ncsc1-c1ccc(CNC(=O)[C@@H]2C[C@@H](O)CN2C(=O)C(c2cc(O[C@H]3CC[C@H](N4CCC(c5cnc(N6C7CCC6CN(c6cc(-c8ccccc8O)nnc6N)C7)nc5)CC4)CC3)no2)C(C)C)cc1 (some centres unmarked) [I-17]
Given back: < 100 nM

Asked: In one line, give reported DC50 of the entry Cc1ncsc1-c1ccc(CNC(=O)[C@@H]2C[C@@H](O)CN2C(=O)[C@@H](NC(=O)C2CC3(C2)CN(C2CCC(c4cnc(N5C6CCC5CN(c5cc(-c7ccccc7O)nnc5N)C6)nc4)CC2)C3)C(C)(C)C)cc1 (some centres unmarked) [I-7] .
Given back: 501 to 1000 nM

Asked: // Input: Cc1ncsc1-c1ccc(CNC(=O)[C@@H]2C[C@@H](O)CN2C(=O)[C@@H](NC(=O)C2CC3(C2)CC(N2CCC(COc4ccc(N5C6CCC5CN(c5cc(-c7ccccc7O)nnc5N)C6)cn4)CC2)C3)C(C)(C)C)cc1 (some centres unmarked) [I-41] . Output its DC50 only.
Given back: > 1000 nM
